# target.of.assay: serotonin 1A receptor (Rattus norvegicus, UniProt P19327)
# Construct: To the receptor fraction of the hippocampus were added a test compound and 0.5 nM of [^3H]; 8-hydroxy-dipropylaminotetralin; from tissue; host or cells: rat hippocampus membrane fraction
# Sequence (P19327 whole entry): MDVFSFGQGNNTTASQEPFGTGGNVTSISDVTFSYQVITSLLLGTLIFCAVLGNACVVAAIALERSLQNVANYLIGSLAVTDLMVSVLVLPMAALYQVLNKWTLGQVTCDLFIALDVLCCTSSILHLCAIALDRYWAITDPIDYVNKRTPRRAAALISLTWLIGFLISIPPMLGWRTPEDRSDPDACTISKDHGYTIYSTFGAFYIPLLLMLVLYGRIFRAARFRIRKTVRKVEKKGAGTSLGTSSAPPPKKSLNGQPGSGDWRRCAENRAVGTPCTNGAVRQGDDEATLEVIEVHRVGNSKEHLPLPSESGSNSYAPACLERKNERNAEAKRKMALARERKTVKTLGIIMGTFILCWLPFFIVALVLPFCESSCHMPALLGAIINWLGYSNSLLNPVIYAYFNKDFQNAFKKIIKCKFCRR
# experimental.details: Binding test on [3H] 8-hydroxy-dipropylaminotetralin, hippocampus receptor fraction
# Set-up: species or system SD rats
# setup.conditions: rat hippocampus receptor fraction, 0.5 nM [3H] 8-OH-DPAT, room temperature 30 min; read-out: 5HT1
Where a name gives a salt, the structure may show the parent alone.
Mark 1.0 only for Ki values smaller than 20 nM; exact matches and larger values are 0.0.

[[record]]
compound = "CCN1CCN(c2nc(-c3ccc(N4CCC(OC)CC4)nc3)cc3ccccc23)CC1 [Example 153, trihydrochloride]"
discrete_label = 1.0

[[record]]
compound = "CCN1CCN(c2nc(-c3ccc(C4=CCOCC4)cc3)cc3ccccc23)CC1 [Example 84, Hydrochloride]"
discrete_label = 0.0

[[record]]
compound = "CCN1CCN(c2nc(NS(=O)(=O)c3ccccc3)cc3ccccc23)CC1 [Example 422]"
discrete_label = 1.0

[[record]]
compound = "CCNC(=O)Cc1ccc(-c2cc3ccccc3c(N3CCN(CC)CC3)n2)cc1 [Example 87, Hydrochloride]"
discrete_label = 1.0

[[record]]
compound = "CCN1CCN(c2nc(-c3ccc(CCC(C)(C)O)cc3)cc3ccccc23)CC1 [Example 388, Dihydrochloride]"
discrete_label = 0.0

[[record]]
compound = "CCN1CCN(c2nc(-c3ccc(CCC(C)O)cc3)cc3sccc23)CC1 (centres unmarked) [Example 285, hydrochloride]"
discrete_label = 0.0

[[record]]
compound = "CCN1CCN(c2nc(-c3ccc(C4=CCC(O)CC4)cc3)cc3ccsc23)CC1 (centres unmarked) [Example 270, hydrochloride]"
discrete_label = 0.0

[[record]]
compound = "CCN1CCN(c2nc(-c3ccc(C(F)CCO)cc3)cc3ccsc23)CC1 (centres unmarked) [Example 256, Dihydrochloride]"
discrete_label = 1.0


* * *

# target.of.assay: serotonin 2 receptor (Rattus norvegicus, UniProt P14842)
# Sequence (P14842 whole entry): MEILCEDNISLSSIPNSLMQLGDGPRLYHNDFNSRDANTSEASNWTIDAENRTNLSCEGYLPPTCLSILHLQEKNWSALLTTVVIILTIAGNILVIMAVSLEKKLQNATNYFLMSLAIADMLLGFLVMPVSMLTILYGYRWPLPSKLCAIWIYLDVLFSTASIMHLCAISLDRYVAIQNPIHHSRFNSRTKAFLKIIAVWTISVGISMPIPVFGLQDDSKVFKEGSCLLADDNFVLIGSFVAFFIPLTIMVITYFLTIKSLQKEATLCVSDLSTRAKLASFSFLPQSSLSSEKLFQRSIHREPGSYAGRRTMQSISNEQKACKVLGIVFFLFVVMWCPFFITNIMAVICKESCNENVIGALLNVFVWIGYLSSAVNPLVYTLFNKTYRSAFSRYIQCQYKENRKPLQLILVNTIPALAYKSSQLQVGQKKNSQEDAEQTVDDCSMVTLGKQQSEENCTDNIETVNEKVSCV
Structures can show the parent of a compound that is named as a salt.
Reported Ki values follow for various compounds
measurement.label: Ki (nM)

[[record]]
compound = "CCN1CCN(c2nc(-c3ccc(CCCO)nc3)cc3ccccc23)CC1 [Example 135]"
data_value = 18.9

[[record]]
compound = "CCN1CCN(c2nc(-c3ccc(O[C@@H](C)CO)cc3)cc3ccsc23)CC1 [Example 438, dihydrochloride]"
data_value = 18.8

[[record]]
compound = "CCN1CCN(c2nc(/C=C/c3ccc(OCCO)cc3)cc3ccoc23)CC1 [Example 307]"
data_value = 11.5

[[record]]
compound = "CCN1CCN(c2nc(-c3ccc(C(O)C4CCCC4)cc3)cc3ccsc23)CC1 (stereo not shown) [Example 458, dihydrochloride]"
data_value = 93.1

[[record]]
compound = "CCN1CCN(c2nc(-c3ccc(NS(=O)(=O)CC)cc3)cc3ccccc23)CC1 [Example 71, Hydrochloride]"
data_value = 1.5

[[record]]
compound = "CCCC(=O)NCc1ccc(-c2cc3ccccc3c(N3CCN(CC)CC3)n2)cc1 [Example 86, Hydrochloride]"
data_value = 5.3

[[record]]
compound = "CCNC(=O)Oc1ccc(-c2cc3ccccc3c(N3CCN(CC)CC3)n2)cc1 [Example 59]"
data_value = 14.3

[[record]]
compound = "CCN1CCN(c2nc(-c3ccc(C(CC(C)O)OC)cc3)cc3ccccc23)CC1 (stereo not shown) [Example 26]"
data_value = 55

[[record]]
compound = "CCN1CCN(c2nc(C#Cc3ccc(OCCO)cc3)cc3ccccc23)CC1 [Example 183, Dihydrochloride]"
data_value = 3.36

[[record]]
compound = "CCN1CCN(c2nc(-c3ccc(S(C)(=O)=O)cc3)cc3ccsc23)CC1 [Example 445, dihydrochloride]"
data_value = 90.4

[[record]]
compound = "CCN1CCN(c2nc(-c3cncc(CCCOC)c3)cc3ccccc23)CC1 [Example 140, Oxalate]"
data_value = 36.7

[[record]]
compound = "CCCC(O)c1ccc(-c2cc3ccsc3c(N3CCN(CC)CC3)n2)cc1 (stereo not shown) [Example 446, dihydrochloride]"
data_value = 30

[[record]]
compound = "CCN1CCN(c2nc(NS(=O)(=O)c3ccccc3)cc3ccccc23)CC1 [Example 422]"
data_value = 175

[[record]]
compound = "CCN1CCN(c2nc(C#Cc3ccccc3OCCO)cc3ccccc23)CC1 [Example 187]"
data_value = 2.53

[[record]]
compound = "CCN1CCN(c2nc(/C=C/c3cc(N4CCOCC4)ncn3)cc3ccccc23)CC1 [Example 215, oxalate]"
data_value = 20.9

[[record]]
compound = "CCC(O)c1ccc(-c2cc3sccc3c(N3CCN(CC)CC3)n2)cc1 (stereo not shown) [Example 282, oxalate]"
data_value = 6.46


Numbers sourced from patent US6875761B2.
